Test target: T1, Human CD3eg linker (human)
T1 construct: Single chain: epsilon and gamma subunits of human CD3 joined by a 29-mer linker, Flag-tag at the C-terminus; also called recombinant human CD3
T1 chain: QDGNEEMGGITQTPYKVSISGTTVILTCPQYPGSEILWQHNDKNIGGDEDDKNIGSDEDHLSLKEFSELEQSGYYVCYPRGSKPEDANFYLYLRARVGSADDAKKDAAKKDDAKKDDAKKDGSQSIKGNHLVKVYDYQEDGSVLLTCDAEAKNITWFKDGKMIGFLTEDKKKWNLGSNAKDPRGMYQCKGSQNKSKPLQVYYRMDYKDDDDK
Assay notes: Biacore SPR, vs template H183/L072
Listed binders paired with reported fold change of affinity
All answers are understood in fold, so give the number only.

Example results:
| Binder | Value reported |
| --- | --- |
| H183/L072 VH D52aE (antibody, name in Kabat numbering, V domains shown) VH: QVQLVESGGGLVQPGRSLRLSCAASGFTFSNAWMHWVRQAPGKGLEWVAQIKEKGNAYAAYYAPSVKGRFTISRDDSKNSIYLQMNSLKTEDTAVYYCHYVHYASASTVLPAFGVDAWGQGTTVTVSS VL: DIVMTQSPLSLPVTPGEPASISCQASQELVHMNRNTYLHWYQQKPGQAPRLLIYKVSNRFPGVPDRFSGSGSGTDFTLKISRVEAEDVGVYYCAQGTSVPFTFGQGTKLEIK | 0 |
| H183/L072 VH G52cA (antibody, name in Kabat numbering, V domains shown) VH: QVQLVESGGGLVQPGRSLRLSCAASGFTFSNAWMHWVRQAPGKGLEWVAQIKDKANAYAAYYAPSVKGRFTISRDDSKNSIYLQMNSLKTEDTAVYYCHYVHYASASTVLPAFGVDAWGQGTTVTVSS VL: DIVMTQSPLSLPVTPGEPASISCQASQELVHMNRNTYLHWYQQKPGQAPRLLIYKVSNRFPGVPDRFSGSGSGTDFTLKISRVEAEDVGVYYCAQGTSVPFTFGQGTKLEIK | 1.6 |

Which fold change of affinity value is on record for H183/L072 VH F27V (antibody, name in Kabat numbering, V domains shown) VH: QVQLVESGGGLVQPGRSLRLSCAASGVTFSNAWMHWVRQAPGKGLEWVAQIKDKGNAYAAYYAPSVKGRFTISRDDSKNSIYLQMNSLKTEDTAVYYCHYVHYASASTVLPAFGVDAWGQGTTVTVSS VL: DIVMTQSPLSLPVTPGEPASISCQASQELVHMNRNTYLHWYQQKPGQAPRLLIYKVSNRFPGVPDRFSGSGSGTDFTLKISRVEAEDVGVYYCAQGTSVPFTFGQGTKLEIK ?
0.3
